TEST_TARGET: Estrogen receptor beta (Homo sapiens)
EXPERIMENT_SUMMARY: inhibitors of ERβ-SRC1 coactivator interaction, primary screen, biochemical, TR-FRET, ERβ LBD, SRC-1 peptide (AID 633)
CONDITION_NOTES: TR-FRET ER-beta LBD / SRC1-Cy5 peptide binding; at 25.6 µM; receptor agonist-loaded with 1 µM estradiol
The campaign covered roughly 86,000 compounds. About 1,100 (1.3%) were called active.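 How the source made its calls: active means compounds whose percent inhibition of the receptor-coactivator binding signal exceeds about 50% in the single-dose screen (limit read from the data); inactive means the rest.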 The sample as a whole holds a higher share of actives than the screen did.
Outcome field: choose from y (active), n (inactive)

- COMPOUND: "O=C(Cn1nnc(-c2ccc3c(c2)OCO3)n1)NCc1ccco1"
  CAT: "y"
- COMPOUND: "COc1ccc(-c2cn3ccsc3n2)cc1"
  CAT: "y"

What classification did `CCOC(=O)Nc1sc(C(=O)N(C)C)c(C)c1C(=O)OCC` end up with in this test? n

What classification did `CCCc1noc2c1/C(=N\O)CCC2` end up with in this test? n

What classification did `Cn1c(NN)nc2sc3c(c2c1=O)CCC3` end up with in this test? n

What classification did `Cc1ccc(S(=O)(=O)NCc2cn3ccsc3n2)c(C)c1` end up with in this test? n

What classification did `Cc1c(Br)cc(C(=O)N2CCCCCC2)c(C)c1C` end up with in this test? n

What classification did `COc1ccc(Cc2nnc(NS(=O)(=O)Cc3ccccc3)s2)cc1` end up with in this test? n

What classification did `COC(=O)c1[nH]c2ccccc2c1NC(=O)CN1CCCc2ccccc21` end up with in this test? y
